- Tested on: E. coli TESEC Mtb Alr
- procedure text: growth (OD600 after 10 h); higher = more growth (less inhibition)
- experimental setup: arabinose 100 nM; compound 0.1 mM; raw OD600 reference: median of DMSO wells 0.413, cell-free background 0.052
Counter-ions that a name gives are not always drawn.
assay endpoint: growth
Give bare numbers.

{"compound": "CC1(C)O[C@@H]2C[C@H]3[C@@H]4C[C@H](F)C5=CC(=O)C=C[C@]5(C)[C@H]4[C@@H](O)C[C@]3(C)[C@]2(C(=O)CO)O1 [Flunisolide]", "measurement": 0.4}
{"compound": "Cc1ccc2c(c1)c1c3n2CCNC3CCC1 (configuration not stated) [Pirlindole mesylate]", "measurement": 0.397}
{"compound": "CC(C)(C(=O)O)c1ccc(C(O)CCCN2CCC(C(O)(c3ccccc3)c3ccccc3)CC2)cc1 (configuration not stated) [Fexofenadine HCl]", "measurement": 0.431}
{"compound": "CCC[C@H](N[C@@H](C)C(=O)N1[C@H](C(=O)O)C[C@@H]2CCCC[C@@H]21)C(=O)OCC", "measurement": 0.431}

Quick one: give me growth for each item below, same order please.
1. CC(=O)OCC(=O)[C@@]1(O)[C@H](C)C[C@H]2[C@@H]3CCC4=CC(=O)C=C[C@]4(C)[C@@]3(F)[C@@H](O)C[C@@]21C [Dexamethasone acetate]
2. CCN(CC)CC#CCOC(=O)C(O)(c1ccccc1)C1CCCCC1 (configuration not stated) [Oxybutynin chloride]
3. CCOCCn1c(N2CCCN(C)CC2)nc2ccccc21

0.396
0.398
0.415

----------
Kindly supply the reported growth values for the records listed here.
- Test system: E. coli TESEC Mtb Asd
- procedure text: growth (OD600 after 10 h); higher = more growth (less inhibition)
- experimental setup: arabinose induction (level): Low; compound 0.1 mM; raw OD600 reference: median of DMSO wells 0.417, cell-free background 0.041
Where a name gives a salt, the structure may show the parent alone.

The cases that follow already have their growth on record.
{"compound": "CN1CCC[C@@H]1CCO[C@](C)(c1ccccc1)c1ccc(Cl)cc1 [Clemastine fumarate]", "growth": 0.0504}
{"compound": "NCc1ccccc1CC(=O)N[C@@H]1C(=O)N2C(C(=O)O)=C(CSc3nnnn3CC(=O)O)CS[C@H]12 [Ceforanide]", "growth": 0.315}
{"compound": "COc1cc(C(=O)NS(=O)(=O)c2ccccc2C)ccc1Cc1cn(C)c2ccc(NC(=O)OC3CCCC3)cc12 [Zafirlukast]", "growth": 0.12}

Record growth for all entries; do not skip any.
1. NCCc1ccc(O)c(O)c1 [Dopamine hydrochloride]
2. CC(c1cc2ccccc2s1)N(O)C(N)=O (stereo not drawn) [Zileuton]
3. N=C(N=C(N)N)N1CCOCC1 [Moroxidine hydrochloride]
4. COc1ccc(C2CNC(=O)C2)cc1OC1CCCC1 (stereo not drawn) [Rolipram]
5. CC[C@H](C)C(=O)O[C@H]1C[C@@H](C)C=C2C=C[C@H](C)[C@H](CC[C@@H]3C[C@@H](O)CC(=O)O3)[C@H]21 [Lovastatin]

1. 0.281
2. 0.352
3. 0.404
4. 0.425
5. 0.35

----------
Consider the following compounds; for each one, report its growth.
- Tested on: E. coli TESEC Mtb Alr
- procedure text: growth (OD600 after 10 h); higher = more growth (less inhibition)
- experimental setup: arabinose 10000000 nM; compound 0.1 mM; raw OD600 reference: median of DMSO wells 0.146, cell-free background 0.041
Where a name gives a salt, the structure may show the parent alone.
Give bare numbers.

Take a look at these entries with their results.
{"compound": "O=C(O)Cc1ccc(-c2ccccc2)cc1 [Felbinac]", "growth": 0.122}
{"compound": "N=C(N)NCc1cccc(I)c1 [Iobenguane sulfate]", "growth": 0.149}
{"compound": "Cc1ccc(N(CC2=NCCN2)c2cccc(O)c2)cc1 [Phentolamine hydrochloride]", "growth": 0.161}
{"compound": "CCN(CC)C(=O)N1CCN(C)CC1 [Diethylcarbamazine citrate]", "growth": 0.148}
{"compound": "C[C@H](N)[C@H](O)c1cccc(O)c1 [Metaraminol bitartrate]", "growth": 0.153}

Dear colleague, could you please provide growth for the compounds listed below?
1. OC(c1cc(C(F)(F)F)nc2c(C(F)(F)F)cccc12)C1CCCCN1 (stereo not drawn) [Mefloquine hydrochloride]
2. O=C(NC(Cc1cc(=O)[nH]c2ccccc12)C(=O)O)c1ccc(Cl)cc1 (stereo not drawn) [Rebamipide]
3. C[C@H](N[C@@H](CCc1ccccc1)C(=O)O)C(=O)N1CCC[C@H]1C(=O)O [Enalaprilat dihydrate]

0.0398
0.146
0.138
